Taken from PubChem BioAssay AID624256.

assay-explanation: HoxA9-arrested leukemia cell differentiation promoters – flow cytometry, MLPCN library, primary screen (AID 624256);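 for GFP+ MAC1+ double positive: cells exposed to compound for four days before flow analysis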
test-settings: ER-HoxA9 myeloid progenitors, lysozyme-GFP differentiation, at 10 µM; measured here: differentiation confirmed by MAC1 staining, stronger effect = higher value
Hit rate of the full screen: of about 360,000 compounds, about 3,700 (1%) were called active. About 2% were inconclusive and are not listed. Shown is part of a subset that was picked to be rich in actives.
quantity: GFP+ MAC1+ double positive (%)
One number for each entry, in %.

Field: GFP+ MAC1+ double positive. Fill in for each record below.
1. Cc1cccc(C)c1NC(=O)C(c1ccc(C(F)(F)F)cc1)n1c(=O)c(-c2ccco2)nc2ccccc21 (stereo unspecified)
2. O=C(C[n+]1ccc2c(c1)nnn2-c1ccccc1)c1ccc(Cl)cc1
3. Fc1ccc(-c2ccc(NCCN3CCOCC3)nn2)cc1
4. COc1ccccc1CN1CCCC(N2CCN(c3ccc(F)cc3)CC2)C1 (stereo unspecified)
5. O=C(CSc1cccc[n+]1[O-])c1ccc(Cl)cc1
6. CCc1noc(C)c1C(=O)N1CCCC(N2CCN(c3ccc(F)cc3)CC2)C1 (stereo unspecified)
7. CC(OC(=O)c1ccc(Cl)cc1O)C(=O)NCCC1=CCCCC1 (stereo unspecified)

RESULT:
1. 2.6
2. 0.8
3. 0.2
4. 0.5
5. 0.4
6. 5.3
7. 0.3

Field: GFP+ MAC1+ double positive. Fill in for each record below.
1. CCOc1nc(NCCN2CCOCC2)nc(Nc2ccc(C)cc2)n1
2. CC(C)OC(=O)c1ccc(NCc2cc(O)ccc2O)cc1Cl
3. c1ccc2cc3c(NCCN4CCOCC4)ccnc3cc2c1
4. COC(=O)c1ccc(NCc2cc(O)ccc2O)cc1

RESULT:
[0.6, 7.3, 8.7, 1.6]

* * *

assay-explanation: HoxA9-arrested leukemia cell differentiation promoters – flow cytometry, MLPCN library, primary screen (AID 624256)
test-settings: ER-HoxA9 myeloid progenitors, lysozyme-GFP differentiation, at 10 µM
Screen size: about 360,000 compounds; about 3,700 (1%) were called active. Another 2% or so got no clear call; they are omitted.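 The calls were made as follows: active = normalized GFP-positive differentiation at or above the plate's own cutoff, the solvent-only control mean plus 3 SD; inconclusive = no clear call, values can overlap the other calls; inactive = the rest.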 The sample holds actives, similar compounds and a random draw of the others, so the mix is not that of the screen.
Response enum: active, inactive

Example entries begin here.
O=C1C(Sc2cccc(F)c2)=C[C@@]2(O)CC[C@@H](O)[C@]1(Sc1cccc(F)c1)[C@H]2O = inactive
Cn1nc(C(F)(F)F)c2cc(C(=O)N3CCOCC3)sc21 = inactive
CCc1nc2ccc(C(=O)NCc3ccc(OC)cc3)cn2c1N(CC)Cc1cccc(Br)c1 = inactive
CCOC(=O)N1CCN(C(=O)c2cc3c(-c4ccc(Cl)cc4)nn(C)c3s2)CC1 = active

# next molecule below
QUERY: Recorded call for COc1ccccc1N1CCN(C(=O)c2cc3c(-c4ccc(Cl)cc4)nn(C)c3s2)CC1 ?
RESULT: inactive

* * *

assay-explanation: HoxA9-arrested leukemia cell differentiation promoters – flow cytometry, MLPCN library, primary screen (AID 624256);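 for GFP+ MAC1+ double positive: cells exposed to compound for four days before flow analysis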
test-settings: ER-HoxA9 myeloid progenitors, lysozyme-GFP differentiation, at 10 µM; measured here: differentiation confirmed by MAC1 staining, stronger effect = higher value
In all, about 360,000 compounds went through this assay and about 3,700 (1%) were called active. Roughly 2% stayed inconclusive and do not appear here. For the sample, actives were picked, then their nearest neighbours and some compounds at random.
quantity: GFP+ MAC1+ double positive (%)
Answers are plain numbers, in %.

A selection of reference data follows.
CCC1CCCCN1S(=O)(=O)Cc1ccccc1Cl (stereo not given) = 3
O=C(NCc1ccccc1Cl)C1CCCN1S(=O)(=O)c1ccc(F)cc1 (stereo not given) = 0.6
COc1ccc(CNC(=O)[C@H](Cc2c[nH]c3ccccc23)NC(C)=O)cc1OC = 0.3
O=C(Nc1ccc(F)cc1)Nc1nnc([C@H]2C[C@H](O)[C@@H](CO)O2)s1 = 0.6

Next item in the queue.
Just so you know, measured GFP+ MAC1+ double positive for COc1ccc(NC(=O)[C@H](NC(=O)[C@@H]2Cc3ccccc3CN2)c2ccccc2)cc1 came out at 3.2
